This listing pairs binders with measured cAMP EC50.
# target-desc: human glucagon receptor (human, UniProt P47871 26-477)
# test-name: cell-based or functional assay

| binder | cAMP EC50 |
| --- | --- |
| IP361 (Fc fusion) YSEGTFTSDYRILKEEEAVRLFIEWLLAGGGGGGSGGGGSGGGGSGGGGSATHTCPPC | > 6.2 µM |
| IP255 (Fc fusion) YSEGTFTSDYSKLLEEEAVRLFIEWLKNGTGGGGGSGGGGSGGGGSGGGGSATHTCPPCPAPEF | > 4.6 µM |
| IP325 (Fc fusion) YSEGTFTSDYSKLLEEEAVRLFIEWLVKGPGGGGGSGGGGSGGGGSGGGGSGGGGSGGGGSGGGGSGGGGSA | > 0.455 µM |
| IP265 (Fc fusion) YSEGTFTSDYSKLLEEEAVRLFIEWLVKGPGKGGGSGGGGSGGGGSGGGGSATHTCPPCPAPEF | > 13 µM |
| IP260 (Fc fusion) YSEGTFTSDYSKLLEEEAVQLFIEWLVKGPGGGGGSGGGGSGGGGSGGGGSATHTCPPCPAPEF | > 16 µM |

Kindly note the recorded cAMP EC50 for IP421 (Fc fusion) HGEGTFTSDLSKQMEEECVRLFIEWLKNGGPSSGAPPPGCGSGGGGSGGGGSGGGGSGGGGSGGGGSGGGGSGGGGSACPPC , which is > 0.106 µM
